system: HT29 colon; assay: NCI-60 one-dose screen, 48 h; settings: 10 µM unless noted
This is part of a sample that, as a whole, favours compounds with a hit. Of some 83,000 tested, about 20% had one in any assay. The source made the active and inactive calls. The calls were made as follows: active = growth percent below 10; inactive = the rest.
Response enum: t for active, f for inactive

For orientation, consider the following solved cases.
CCN(CC)Cc1cccc(C(=O)OC)c1 = f
O=c1ccn2nc3ccccc3c2[nH]1 = f
COc1cccc(-c2nn(-c3ccccc3)cc2-c2ccnc(NCCCNC(=O)c3ccc(F)cc3)c2)c1 = f
O=C1c2cccc(NCCN=Cc3cc([N+](=O)[O-])ccc3O)c2C(=O)c2c(NCCN=Cc3cc([N+](=O)[O-])ccc3O)cccc21 = f
Cc1ccc(Nc2ccc(Nc3ccc(C)cc3)c3c2C(=O)c2cccc(O)c2C3=O)cc1 = f
O=C1/C(=C\c2c[nH]c3ccccc23)c2ccccc2N1c1c(Cl)cccc1Cl = t
CC/C=C\C[C@H](O)C/C=C1/C(=O)C=C[C@@H]1C/C=C\CCCC(=O)OC = t
CC(C)(C)OC(=O)Nc1ccc2c(c1)C(NC(=O)Nc1cccc(C#N)c1)CC(C)(C)O2 (centres undefined) = f

Task: Fill in: this test's call for O=C1CCc2c(sc3[nH]c(=S)n(-c4ccc(OC(F)(F)F)cc4)c(=O)c23)C1 is ___
Result: f
